Would you mind telling me the reported log10 of cAMP EC50 of each entry?
- subject of test: hMC5-R (human) (UniProt P33032)
- Sequence (P33032 whole entry): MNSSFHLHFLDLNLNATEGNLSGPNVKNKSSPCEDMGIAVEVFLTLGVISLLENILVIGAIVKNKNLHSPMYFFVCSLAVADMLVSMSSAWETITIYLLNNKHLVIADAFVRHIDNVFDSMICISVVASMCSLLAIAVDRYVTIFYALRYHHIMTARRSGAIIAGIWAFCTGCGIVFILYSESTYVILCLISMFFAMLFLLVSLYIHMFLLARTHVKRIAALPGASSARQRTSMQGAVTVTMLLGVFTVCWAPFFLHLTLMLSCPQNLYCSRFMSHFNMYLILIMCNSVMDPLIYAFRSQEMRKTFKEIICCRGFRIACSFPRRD
- assay notes: cell-based or functional assay
Bridge positions count the residues as written; N and C are the ends. Square brackets hold non-standard residues; d marks the D form. Ends that are not written are not given here. Bip = N[C@@H](Cc1ccc(-c2ccccc2)cc1)C(=O)O; 2Nal = N[C@@H](Cc1ccc2ccccc2c1)C(=O)O; d2Nal = N[C@H](Cc1ccc2ccccc2c1)C(=O)O; hArg = N=C(N)NCCCC[C@H](N)C(=O)O; Pen = CC(C)(S)[C@H](N)C(=O)O; Nle = CCCC[C@H](N)C(=O)O; Aib = CC(C)(N)C(=O)O; Ava = NCCCCC(=O)O; GABA = NCCCC(=O)O; βAla = NCCC(=O)O
Units before log transform: nM; reported quantity: cAMP EC50; transform: log10.

A selection of reference data follows.
INSERT INTO measurements (binder, readout_label, numeric_result) VALUES
  ('Ac-[dR]CH[dF]RW[GABA][Pen]-NH2 (disulfide 2-8; SMILES CC(=O)N[C@H](CCCNC(=N)N)C(=O)N[C@H]1CSSC(C)(C)[C@@H](C(N)=O)NC(=O)CCCNC(=O)[C@H](Cc2c[nH]c3ccccc23)NC(=O)[C@H](CCCNC(=N)N)NC(=O)[C@@H](Cc2ccccc2)NC(=O)[C@H](Cc2c[nH]cn2)NC1=O) [Ac-D-Arg-c(Cys-His-D-Phe-Arg-Trp-Gaba-Pen)-NH2]', 'log10 of cAMP EC50', 3.33),
  ('[dF]CH[d(Et)Tyr][hArg]W[βAla][dC]T-NH2 (disulfide 2-8) [D-Phe-c(Cys-His-D-(Et)Tyr-hArg-Trp-β-Ala-D-Cys)-Thr-NH2]', 'log10 of cAMP EC50', 0.38),
  ('RGCAHXRWC (residues 1-2 joined in a hydantoin ring (C(O)); D-Ala4; X6=D-2-Nal; Cys3-Cys9 disulfide; C-terminal amide) [Hydantoin(C(O)-(Arg-Gly))-c(Cys-D-Ala-His-D-2-Nal-Arg-Trp-Cys)-NH2]', 'log10 of cAMP EC50', 2.01),
  ('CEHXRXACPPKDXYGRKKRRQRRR (N-terminal acetyl; X4=D-2-Nal; X6=Bal; X13=β-Ala; Cys1-Cys8 disulfide; C-terminal amide)', 'log10 of cAMP EC50', 3.26),
  ('Ac-[Nle]CH[dF]RW[Ava]C-NH2 (disulfide 2-8; SMILES CCCC[C@H](NC(C)=O)C(=O)N[C@H]1CSSC[C@@H](C(N)=O)NC(=O)CCCCNC(=O)[C@H](Cc2c[nH]c3ccccc23)NC(=O)[C@H](CCCNC(=N)N)NC(=O)[C@@H](Cc2ccccc2)NC(=O)[C@H](Cc2c[nH]cn2)NC1=O) [Ac-Nle-c(Cys-His-D-Phe-Arg-Trp-Apn-Cys)-NH2]', 'log10 of cAMP EC50', 0.24);

Quick batch: log10 of cAMP EC50 for everything below.
1. [Nle]CH[dF]RW[Ava]C-NH2 (disulfide 2-8; N-terminus assumed; SMILES CCCC[C@H](N)C(=O)N[C@H]1CSSC[C@@H](C(N)=O)NC(=O)CCCCNC(=O)[C@H](Cc2c[nH]c3ccccc23)NC(=O)[C@H](CCCNC(=N)N)NC(=O)[C@@H](Cc2ccccc2)NC(=O)[C@H](Cc2c[nH]cn2)NC1=O) [Nle-c(Cys-His-D-Phe-Arg-Trp-Apn-Cys)-NH2]
2. XCAHFRWCXXYGRKKRRQRRR (N-terminal acetyl; X1=Nle; D-Ala3; D-Phe5; X9=Doc; X10=Doc; Cys2-Cys8 disulfide; C-terminal amide) [Ac-Nle-c(Cys-D-Ala-His-D-Phe-Arg-Trp-Cys)-(Doc)2-Tyr-Gly-Arg-Lys-Lys-Arg-Arg-Gln-Arg-Arg-Arg-NH2]
3. Ac-[Nle]CH[dF]RW[GABA][Pen]-NH2 (disulfide 2-8) [Ac-Nle-c(Cys-His-D-Phe-Arg-Trp-Gaba-Pen)-NH2]
4. Ac-[Nle]CH[d2Nal]RW[GABA]C-NH2 (disulfide 2-8) [Ac-Nle-c(Cys-His-D-2-Nal-Arg-Trp-Gaba-Cys)-NH2]
5. [Nle]CH[dF]RW[GABA]C-NH2 (disulfide 2-8) [Nle-c(Cys-His-D-Phe-Arg-Trp-Gaba-Cys)-NH2]

1: 0.49; 2: 2.17; 3: 0.59; 4: -0.82; 5: 0.23

Quick batch: log10 of cAMP EC50 for everything below.
1. [dF]CH[d(Et)Tyr][hArg][Bip][βAla][dC]T-NH2 (disulfide 2-8) [D-Phe-c(Cys-His-D-(Et)Tyr-hArg-Bip-β-Ala-D-Cys)-Thr-NH2]
2. Ac-[Nle]C[dL]H[dF]RWC-NH2 (disulfide 2-8; SMILES CCCC[C@H](NC(C)=O)C(=O)N[C@H]1CSSC[C@@H](C(N)=O)NC(=O)[C@H](Cc2c[nH]c3ccccc23)NC(=O)[C@H](CCCNC(=N)N)NC(=O)[C@@H](Cc2ccccc2)NC(=O)[C@H](Cc2c[nH]cn2)NC(=O)[C@@H](CC(C)C)NC1=O) [Ac-Nle-c(Cys-D-Leu-His-D-Phe-Arg-Trp-Cys)-NH2]
3. GCEH[dF]RWC-NH2 (disulfide 2-8; also: residues 1-2 joined in a hydantoin ring (C(O))) [c[Hydantoin(C(O)-(Gly-Cys))-Glu-His-D-Phe-Arg-Trp-Cys]-NH2]
4. Ac-CEH[d2Nal]RWACPPKD-NH2 (disulfide 1-8; SMILES CC(=O)N[C@H]1CSSC[C@@H](C(=O)N2CCC[C@H]2C(=O)N2CCC[C@H]2C(=O)N[C@@H](CCCCN)C(=O)N[C@@H](CC(=O)O)C(N)=O)NC(=O)[C@H](C)NC(=O)[C@H](Cc2c[nH]c3ccccc23)NC(=O)[C@H](CCCNC(=N)N)NC(=O)[C@@H](Cc2ccc3ccccc3c2)NC(=O)[C@H](Cc2c[nH]cn2)NC(=O)[C@H](CCC(=O)O)NC1=O) [Ac-c(Cys-Glu-His-D-2-Nal-Arg-Trp-Ala-Cys)-Pro-Pro-Lys-Asp-NH2]

[1.50, 1.89, 3.25, 0.84]

Sample Ac-CEH[d2Nal]R[2Nal][Aib]CPPKD-NH2 (disulfide 1-8; SMILES CC(=O)N[C@H]1CSSC[C@@H](C(=O)N2CCC[C@H]2C(=O)N2CCC[C@H]2C(=O)N[C@@H](CCCCN)C(=O)N[C@@H](CC(=O)O)C(N)=O)NC(=O)C(C)(C)NC(=O)[C@H](Cc2ccc3ccccc3c2)NC(=O)[C@H](CCCNC(=N)N)NC(=O)[C@@H](Cc2ccc3ccccc3c2)NC(=O)[C@H](Cc2c[nH]cn2)NC(=O)[C@H](CCC(=O)O)NC1=O) [Ac-c(Cys-Glu-His-D-2-Nal-Arg-2-Nal-Aib-Cys)-Pro-Pro-Lys-Asp-NH2] — what was its log10 of cAMP EC50? 2.94
